target: CD276, Q5ZPR3
Sequence (Q5ZPR3 whole entry): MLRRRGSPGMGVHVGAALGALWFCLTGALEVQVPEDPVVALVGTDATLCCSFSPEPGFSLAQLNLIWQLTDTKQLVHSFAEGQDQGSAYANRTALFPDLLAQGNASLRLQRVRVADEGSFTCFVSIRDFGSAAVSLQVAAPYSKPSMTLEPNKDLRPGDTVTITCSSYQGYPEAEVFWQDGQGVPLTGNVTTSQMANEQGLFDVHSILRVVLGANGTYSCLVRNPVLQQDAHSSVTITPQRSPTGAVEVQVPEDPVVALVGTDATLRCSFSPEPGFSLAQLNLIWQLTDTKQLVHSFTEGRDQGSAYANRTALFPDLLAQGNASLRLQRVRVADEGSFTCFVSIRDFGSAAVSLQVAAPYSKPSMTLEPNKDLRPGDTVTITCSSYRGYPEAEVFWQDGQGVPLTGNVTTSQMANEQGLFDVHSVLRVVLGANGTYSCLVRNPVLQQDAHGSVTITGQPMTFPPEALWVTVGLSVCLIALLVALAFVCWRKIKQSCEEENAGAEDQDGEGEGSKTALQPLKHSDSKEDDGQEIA
Thanks in advance; please answer with one of these: active, inactive

Input: GET /call?item= d1r6_design_ppi_725_dldesign_0_cycle0_af2pred (protein) AELAATHMAGVEALNRARAAAVALVALDPARGAAWLAEADELGRRLNEAAADASRAEELKRITEELEKLAERIAAERDAAAA returns the recorded outcome of this test.
Output: inactive

Input: Again, but for d1r6_design_ppi_906_dldesign_0_cycle0_af2pred (protein) AAAAQAEVTIKMGEAVIKQGEEWIEHPEYAEHAAKLLEAVADIAKATAKAAAAADAELAKKVEETRKKLEEVREKAKAVAEA
Output: inactive

Input: Again, but for d1r8_design_ppi_953_dldesign_0_cycle1_af2pred (protein) SAAAELALKSLQAALAAAKAAAKAYGPAAAEAHLKNALLLADSYAAATDAAAGAALKAKVEAEAAAAMAAV
Output: inactive

Input: Again, but for d1r8_design_ppi_218_dldesign_0_cycle1_af2pred (protein) PTPEELAAAYREVRELAERAVAGTPEEAKRYAERIAELVARAEERFGPGAGVLLRNVALAVARANPVAYEYVRAAL
Output: inactive

Input: Again, but for d1r8_design_ppi_923_dldesign_0_cycle0_af2pred (protein) AAEMAATAAYVSEVAARAQAEDPSLGPEVNRLFALLARAGAAYAADPAAGAAVAAEARAYAEELDKRLEAAL
Output: inactive

Input: Again, but for d2r7_design_ppi_218_dldesign_0_cycle0_af2pred (protein) SAAEAEAKRYINHAETTLATAKQLAERSTPEQAARYYRAAGEIAWKDYEKAGEALSPEEGEKMRKKGKEVKEELEKKAKELEEK
Output: inactive

Input: Again, but for d6r1_design_ppi_1068_dldesign_0_cycle1_af2pred (protein) APAVLLAQAQKSAELALKALELGYNEAAVLFLQAASYFFAGAVNPATAATYAAKGVELIEKGLALLKAAS
Output: inactive

Input: Again, but for d6r1_design_ppi_1028_dldesign_0_cycle0_af2pred (protein) AAAIAATKAELAKGKALLAKAKAAPAAAWNEALAAELRAAANALNRAATALLAAGGDTALAVEATETAVELLKAAGEINRA
Output: active

Input: Again, but for d6r1_design_ppi_593_dldesign_0_cycle1_af2pred (protein) SKNVELAEKAQEVVKRAKEVGKLVPEKAEEIISTSNQALAYALNPHTVAKGEKLLEEATKLVEEAEKEAK
Output: inactive

Input: Again, but for d6r1_design_ppi_759_dldesign_0_cycle1_af2pred (protein) AAETERALRNAKAYATAAEHAAKAHPESPELKKLAAEAKAYYKKAAAAYAAGKKEEALKYAQKAIEKAAEAFSLLS
Output: inactive
